# Condition set: in THF, 298.95 K
Observable: solubility (mole fraction)
In your answer, state the number alone without any accompanying words.

Report solubility (mole fraction) for O=C(O)CCCCCC(=O)O please.
0.191

----------
# Condition set: in ethanol, 298.45 K
Observable: solubility (mole fraction)
In your answer, state the number alone without any accompanying words.

Report solubility (mole fraction) for O=C(O)CCCCCC(=O)O please.
0.121

----------
# Condition set: in ethanol, 329.25 K
Observable: solubility (mole fraction)
In your answer, state the number alone without any accompanying words.

Report solubility (mole fraction) for O=C(O)CCCCCC(=O)O please.
0.294

----------
# Condition set: in ethanol, 317.95 K
Observable: solubility (mole fraction)
In your answer, state the number alone without any accompanying words.

Report solubility (mole fraction) for O=C(O)CCCCCC(=O)O please.
0.219

----------
# Condition set: in ethanol, 305.75 K
Observable: solubility (mole fraction)

Report solubility (mole fraction) for O=C(O)CCCCCC(=O)O please.
0.151

----------
# Condition set: in diethyl ether, 281.95 K
Observable: solubility (mole fraction)
In your answer, state the number alone without any accompanying words.

Report solubility (mole fraction) for O=C(O)CCCCCC(=O)O please.
0.0102

----------
# Condition set: in methanol, 321.35 K
Observable: solubility (mole fraction)
In your answer, state the number alone without any accompanying words.

Report solubility (mole fraction) for O=C(O)CCCCCC(=O)O please.
0.27

----------
# Condition set: in methanol, 328.75 K
Observable: solubility (mole fraction)
In your answer, state the number alone without any accompanying words.

Report solubility (mole fraction) for O=C(O)CCCCCC(=O)O please.
0.342

----------
# Condition set: in methanol, 300.75 K
Observable: solubility (mole fraction)
In your answer, state the number alone without any accompanying words.

Report solubility (mole fraction) for O=C(O)CCCCCC(=O)O please.
0.142

----------
# Condition set: in methanol, 325.55 K
Observable: solubility (mole fraction)

Report solubility (mole fraction) for O=C(O)CCCCCC(=O)O please.
0.309

----------
# Condition set: in THF, 315.75 K
Observable: solubility (mole fraction)
In your answer, state the number alone without any accompanying words.

Report solubility (mole fraction) for O=C(O)CCCCCC(=O)O please.
0.271

----------
# Condition set: in diethyl ether, 301.55 K
Observable: solubility (mole fraction)
In your answer, state the number alone without any accompanying words.

Report solubility (mole fraction) for O=C(O)CCCCCC(=O)O please.
0.0222

----------
# Condition set: in methanol, 327.15 K
Observable: solubility (mole fraction)
In your answer, state the number alone without any accompanying words.

Report solubility (mole fraction) for O=C(O)CCCCCC(=O)O please.
0.324

----------
# Condition set: in diethyl ether, 287.05 K
Observable: solubility (mole fraction)
In your answer, state the number alone without any accompanying words.

Report solubility (mole fraction) for O=C(O)CCCCCC(=O)O please.
0.0122

----------
# Condition set: in diethyl ether, 292.95 K
Observable: solubility (mole fraction)
In your answer, state the number alone without any accompanying words.

Report solubility (mole fraction) for O=C(O)CCCCCC(=O)O please.
0.0152

----------
# Condition set: in methanol, 323.75 K
Observable: solubility (mole fraction)
In your answer, state the number alone without any accompanying words.

Report solubility (mole fraction) for O=C(O)CCCCCC(=O)O please.
0.293

----------
# Condition set: in methanol, 305.95 K
Observable: solubility (mole fraction)
In your answer, state the number alone without any accompanying words.

Report solubility (mole fraction) for O=C(O)CCCCCC(=O)O please.
0.171

----------
# Condition set: in ethanol, 327.55 K
Observable: solubility (mole fraction)
In your answer, state the number alone without any accompanying words.

Report solubility (mole fraction) for O=C(O)CCCCCC(=O)O please.
0.281

----------
# Condition set: in methanol, 307.65 K
Observable: solubility (mole fraction)
In your answer, state the number alone without any accompanying words.

Report solubility (mole fraction) for O=C(O)CCCCCC(=O)O please.
0.18

----------
# Condition set: in diethyl ether, 290.05 K
Observable: solubility (mole fraction)
In your answer, state the number alone without any accompanying words.

Report solubility (mole fraction) for O=C(O)CCCCCC(=O)O please.
0.0137

----------
# Condition set: in THF, 311.75 K
Observable: solubility (mole fraction)
In your answer, state the number alone without any accompanying words.

Report solubility (mole fraction) for O=C(O)CCCCCC(=O)O please.
0.25

----------
# Condition set: in ethanol, 301.45 K
Observable: solubility (mole fraction)
In your answer, state the number alone without any accompanying words.

Report solubility (mole fraction) for O=C(O)CCCCCC(=O)O please.
0.131

----------
# Condition set: in THF, 303.65 K
Observable: solubility (mole fraction)
In your answer, state the number alone without any accompanying words.

Report solubility (mole fraction) for O=C(O)CCCCCC(=O)O please.
0.211

----------
# Condition set: in THF, 302.15 K
Observable: solubility (mole fraction)
In your answer, state the number alone without any accompanying words.

Report solubility (mole fraction) for O=C(O)CCCCCC(=O)O please.
0.204

----------
# Condition set: in diethyl ether, 284.65 K
Observable: solubility (mole fraction)
In your answer, state the number alone without any accompanying words.

Report solubility (mole fraction) for O=C(O)CCCCCC(=O)O please.
0.0112

----------
# Condition set: in diethyl ether, 299.15 K
Observable: solubility (mole fraction)
In your answer, state the number alone without any accompanying words.

Report solubility (mole fraction) for O=C(O)CCCCCC(=O)O please.
0.0199

----------
# Condition set: in THF, 317.75 K
Observable: solubility (mole fraction)

Report solubility (mole fraction) for O=C(O)CCCCCC(=O)O please.
0.282

----------
# Condition set: in diethyl ether, 296.35 K
Observable: solubility (mole fraction)

Report solubility (mole fraction) for O=C(O)CCCCCC(=O)O please.
0.018

----------
# Condition set: in ethanol, 314.85 K
Observable: solubility (mole fraction)

Report solubility (mole fraction) for O=C(O)CCCCCC(=O)O please.
0.202

----------
# Condition set: in methanol, 312.65 K
Observable: solubility (mole fraction)

Report solubility (mole fraction) for O=C(O)CCCCCC(=O)O please.
0.205

----------
# Condition set: in THF, 323.05 K
Observable: solubility (mole fraction)

Report solubility (mole fraction) for O=C(O)CCCCCC(=O)O please.
0.316

----------
# Condition set: in diethyl ether, 294.75 K
Observable: solubility (mole fraction)
In your answer, state the number alone without any accompanying words.

Report solubility (mole fraction) for O=C(O)CCCCCC(=O)O please.
0.0165

----------
# Condition set: in THF, 300.55 K
Observable: solubility (mole fraction)
In your answer, state the number alone without any accompanying words.

Report solubility (mole fraction) for O=C(O)CCCCCC(=O)O please.
0.198

----------
# Condition set: in THF, 321.65 K
Observable: solubility (mole fraction)
In your answer, state the number alone without any accompanying words.

Report solubility (mole fraction) for O=C(O)CCCCCC(=O)O please.
0.306

----------
# Condition set: in ethanol, 323.55 K
Observable: solubility (mole fraction)

Report solubility (mole fraction) for O=C(O)CCCCCC(=O)O please.
0.248

----------
# Condition set: in ethanol, 320.95 K
Observable: solubility (mole fraction)
In your answer, state the number alone without any accompanying words.

Report solubility (mole fraction) for O=C(O)CCCCCC(=O)O please.
0.235

----------
# Condition set: in methanol, 310.05 K
Observable: solubility (mole fraction)
In your answer, state the number alone without any accompanying words.

Report solubility (mole fraction) for O=C(O)CCCCCC(=O)O please.
0.187

The measurements presented in this section are drawn from BigSolDB 2.1.
